experiment: Plasma levels of 9-deoxo-16,16-dimethyl-9-methylene-PGE2 by radioimmunoassay after insertion of a suppository; type: in vivo, Rhesus monkeys (Macaca mulatta); conditions: rhesus monkey, plasma, 30 mg, plasma; Monkey #6 (pregnant animal with uterine recording); 0.5 Hours; 30 mg Potassium Salt in H15 Suppositories; read-out: Drug Levels
Where a name gives a salt, the structure may show the parent alone.
endpoint: concentration at 0.5 h (ng/mL)
Use ng/mL as the unit, but write only the number.

Lookup: Sample C=C1C[C@@H](O)[C@H](/C=C/[C@@H](O)C(C)(C)CCCC)[C@H]1C/C=C\CCCC(=O)O [Potassium Salt] — what was its concentration at 0.5 h?
Found: 68.4
